All figures here come from patent US20220175754A1.

Below, each entry is listed alongside its reported IC50.
- assay system: P97 (Homo sapiens, UniProt P55072)
- Sequence (P55072 whole entry): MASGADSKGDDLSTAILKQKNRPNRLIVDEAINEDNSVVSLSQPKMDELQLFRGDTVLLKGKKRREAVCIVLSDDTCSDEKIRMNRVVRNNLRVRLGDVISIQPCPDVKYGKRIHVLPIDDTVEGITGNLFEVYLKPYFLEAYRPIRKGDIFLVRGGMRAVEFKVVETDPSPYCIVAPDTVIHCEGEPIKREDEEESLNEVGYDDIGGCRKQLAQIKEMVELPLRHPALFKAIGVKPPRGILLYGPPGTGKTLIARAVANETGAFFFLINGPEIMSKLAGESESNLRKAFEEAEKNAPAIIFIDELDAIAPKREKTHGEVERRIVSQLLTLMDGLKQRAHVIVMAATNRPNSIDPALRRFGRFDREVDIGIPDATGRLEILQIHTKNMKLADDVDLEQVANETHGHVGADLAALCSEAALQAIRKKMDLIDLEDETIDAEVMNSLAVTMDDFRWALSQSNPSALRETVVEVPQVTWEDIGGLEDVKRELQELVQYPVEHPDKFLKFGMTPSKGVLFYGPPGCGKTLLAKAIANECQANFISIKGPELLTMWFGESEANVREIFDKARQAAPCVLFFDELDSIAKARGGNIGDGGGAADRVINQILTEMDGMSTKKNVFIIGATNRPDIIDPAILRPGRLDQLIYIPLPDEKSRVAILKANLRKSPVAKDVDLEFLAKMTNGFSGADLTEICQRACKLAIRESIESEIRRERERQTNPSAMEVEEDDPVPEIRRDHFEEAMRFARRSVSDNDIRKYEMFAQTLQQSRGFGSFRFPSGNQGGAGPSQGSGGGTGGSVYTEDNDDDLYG
- assay text: P97 Biomolgreen ATPase assay, 200 μM ATP
- Format: biochemical

[
  {
    "compound": "N#Cc1ccc(C#CCOCc2nnc(SC3CCCC3)n2-c2cccnc2)cc1 [Compound 56]",
    "unit tag": "nM",
    "inequality sign": ">",
    "IC50": 6700
  },
  {
    "compound": "Cc1cc(OCc2nnc(SC3CCCC3)n2-c2cccnc2)ccc1C#CCNC(=O)OC(C)(C)C [Compound 49]",
    "unit tag": "nM",
    "inequality sign": "=",
    "IC50": 260
  },
  {
    "compound": "[2H]C1([2H])C([2H])([2H])C([2H])([2H])C([2H])(Sc2nnc(COc3ccc(C#CCO)c(C)c3)n2-c2cccnc2)C1([2H])[2H] [Compound 117]",
    "unit tag": "nM",
    "inequality sign": "=",
    "IC50": 990
  },
  {
    "compound": "Cc1cc(OCc2nnc(SC3CCCC3)n2-c2cccnc2)ccc1C#CCOC(=O)NCCNC(=O)CC1C2CC3CC(C2)CC1C3 (stereo not shown) [Compound 110]",
    "unit tag": "nM",
    "inequality sign": "=",
    "IC50": 60
  }
]

---

Examples of compounds with documented pIC50 follow.
- assay system: UniProt P55072
- assay text: P97 Biomolgreen ATPase assay, 200 μM ATP
- Type: biochemical
pIC50: −log10 of the molar value.

[
  {
    "compound": "Cc1cc(OCc2nnc(SC3CCCC3)n2-c2cccnc2)ccc1C#CCOC(=O)NCCOCCNC(=O)CC1C2CC3CC(C2)CC1C3 (stereo not drawn)",
    "pIC50": 7.52
  },
  {
    "compound": "COC(C)NCC#Cc1ccc(OCc2nnc(SC3CCCC3)n2-c2cccnc2)cc1C (stereo not drawn)",
    "pIC50": 7.54
  },
  {
    "compound": "[2H]C1([2H])C([2H])([2H])C([2H])([2H])C([2H])(Sc2nnc(COc3ccc(C#CCNC4CCN(C)CC4)c(C)c3)n2-c2cccnc2)C1([2H])[2H]",
    "pIC50": 7.17
  }
]

---

- assay system: P97 (Homo sapiens, UniProt P55072)
- assay text: P97 Biomolgreen ATPase assay, 200 μM ATP
- Assay type: biochemical
- condition parameters: read-out: P97 Biomolgreen, IC50
measured property: IC50 (µM)

[
  {
    "compound": "OCC#Cc1ccc(OCc2nnc(SC3C=CCCC3)n2-c2cccnc2)cc1 (stereo not shown)",
    "measured property": "IC50",
    "observed value": 0.032
  },
  {
    "compound": "CN1CCC(NC(=O)OCC#Cc2ccc(OCc3nnc(SC4C=CCCC4)n3-c3cccnc3)cc2C#N)CC1 (stereo not shown)",
    "measured property": "IC50",
    "observed value": 0.03
  },
  {
    "compound": "C#Cc1ccc(OCc2nnc(CC3CC3)n2-c2cccnc2)cc1C",
    "measured property": "IC50",
    "observed value": 5.3
  },
  {
    "compound": "Cc1cc(OCc2nnc(SC3C=CCCC3)n2-c2cccnc2)ccc1C#CCOC1CCCCO1 (stereo not shown)",
    "measured property": "IC50",
    "observed value": 0.11
  }
]

---

- assay system: UniProt:P55072
- assay text: P97 Biomolgreen ATPase assay, 200 μM ATP
- Format: biochemical
pIC50: −log10 of the molar value.
A collection of molecules and their measured pIC50

[
  {
    "molecule": "[2H]C1([2H])C([2H])([2H])C([2H])([2H])C([2H])(Sc2nnc(COc3ccc(C#CC(C)OC(=O)NCCN4CCN(C(C)C)CC4)c(C)c3)n2-c2cccnc2)C1([2H])[2H] (stereo not shown)",
    "pIC50": 6.89
  },
  {
    "molecule": "Cc1cc(OCc2nnc(SC3C=CCCC3)n2-c2cccnc2)ccc1C#CCOC(=O)N1CCN(C)CC1 (stereo not shown)",
    "pIC50": 7.82
  },
  {
    "molecule": "Cc1cc(OCc2nnc(SC3C=CCCC3)n2-c2cccnc2)ccc1C#CCOC(=O)NC1CCN(C)CC1 (stereo not shown)",
    "pIC50": 7.60
  },
  {
    "molecule": "Cc1cc(OCc2nnc(SC3C=CCCC3)n2-c2cccnc2)ccc1C#CCOC(=O)NCCN1CCN(C(C)C)CC1 (stereo not shown)",
    "pIC50": 7.59
  }
]

---

- Tested on: SKMel2 (NRASQ61R)
- assay text: Anti-proliferative activity, SKMel2
- Type: cell-based
- condition parameters: Homo sapiens, SK-MEL-2, skin cancer, read-out: Anti-proliferative activity (μM) of NMS-873

[
  {
    "compound": "Cc1cc(OCc2nnc(SC3CCCC3)n2-c2cccnc2)ccc1-c1ccc(S(C)(=O)=O)cc1 [NMS-873]",
    "IC50 [µM]": 3.04
  }
]
